- system: T1, cynomolgus monkey CD3 E&D complex protein (Sino Biological Inc., CT032-00323H) (cynomolgus monkey, UniProt Q95LI5 22-117; Q95LI8 22-105)
- T1 construct: bought heterodimer
- T1 sequence (Q95LI5 22-117, chain 1 of 2): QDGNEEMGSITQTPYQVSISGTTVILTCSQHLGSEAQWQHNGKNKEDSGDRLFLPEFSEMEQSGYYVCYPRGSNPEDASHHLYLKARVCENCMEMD
- T1 sequence (Q95LI8 22-105, chain 2 of 2): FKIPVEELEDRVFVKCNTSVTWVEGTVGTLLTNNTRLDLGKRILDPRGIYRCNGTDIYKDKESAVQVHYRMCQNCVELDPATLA
- method: BLI, antibody on sensor
- Procedure: 100 μl SD buffer, various antibodies, human CD3 E&D complex protein (Sino Biological Inc., CT026H0323H), and cynomolgus monkey CD3 E&D complex protein (Sino Biological Inc., CT032-00323H) were added into 96-well black polystyrene semi-quantitative micro-well plate (Greiner, 675076) respectively. Fortebio Octet Red 96 was used for detection, and the sensor position was selected according to the sample position. […]
recordedEndpoint: koff (s⁻¹)
Numbers only, in s⁻¹.

Solved cases below.
So what does the record say about koff for hzsp34.22 (antibody, human IgG1, lambda, L234A L235A, V domains shown, IgG1 L234A L235A, lambda) VH: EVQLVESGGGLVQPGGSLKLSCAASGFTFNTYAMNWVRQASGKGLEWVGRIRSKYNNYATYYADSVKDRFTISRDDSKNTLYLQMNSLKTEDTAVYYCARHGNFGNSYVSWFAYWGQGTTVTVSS VL: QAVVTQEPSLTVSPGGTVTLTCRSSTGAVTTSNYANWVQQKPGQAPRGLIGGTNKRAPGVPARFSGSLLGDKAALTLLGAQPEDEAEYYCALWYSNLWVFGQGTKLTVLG ? 0.000886

Follow-up entry: hzsp34.42 (antibody, human IgG1, kappa, L234A L235A, V domains shown, IgG1 L234A L235A, kappa) VH: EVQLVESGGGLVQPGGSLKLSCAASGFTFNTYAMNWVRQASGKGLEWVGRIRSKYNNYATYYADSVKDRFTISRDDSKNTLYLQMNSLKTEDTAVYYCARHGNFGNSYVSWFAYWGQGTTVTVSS VL: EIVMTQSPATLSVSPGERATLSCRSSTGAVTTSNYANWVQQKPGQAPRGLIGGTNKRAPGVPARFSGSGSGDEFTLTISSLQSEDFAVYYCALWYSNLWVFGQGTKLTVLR 0.00248

Here is another binder to look at.
So what does the record say about koff for hzsp34.12 (antibody, human IgG1, lambda, L234A L235A, V domains shown, IgG1 L234A L235A, lambda) VH: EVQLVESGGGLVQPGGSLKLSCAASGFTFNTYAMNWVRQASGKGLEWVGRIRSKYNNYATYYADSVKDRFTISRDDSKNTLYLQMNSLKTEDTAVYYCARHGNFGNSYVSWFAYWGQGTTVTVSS VL: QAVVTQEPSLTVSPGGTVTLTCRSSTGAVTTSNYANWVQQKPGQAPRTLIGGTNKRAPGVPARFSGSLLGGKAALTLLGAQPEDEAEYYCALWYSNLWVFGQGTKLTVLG ? 0.00226

These measurements were taken from patent US20230374132A1.
